Data provenance is the supplement of paper PMC6555819.

PBM binding z-score values, listed per item
tested on: RARa homodimer (NR concentration 270 nM); test: PBM binding z-score (relative to random genomic background probes); higher = stronger binding; sequences stand for … in GC…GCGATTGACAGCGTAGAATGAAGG
endpoint: PBM binding z-score

>>> meas_value("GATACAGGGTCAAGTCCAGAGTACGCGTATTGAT")
1.38
>>> meas_value("CTAACTAGGTCAGAACAGGACAGTGAAGGATGAT")
0.43
>>> meas_value("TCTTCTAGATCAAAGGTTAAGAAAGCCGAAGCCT")
0.0747
>>> meas_value("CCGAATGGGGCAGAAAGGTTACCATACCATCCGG")
-0.0696
>>> meas_value("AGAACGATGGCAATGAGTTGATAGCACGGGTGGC")
-0.149
>>> meas_value("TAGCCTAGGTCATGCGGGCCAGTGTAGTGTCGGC")
-1.29
>>> meas_value("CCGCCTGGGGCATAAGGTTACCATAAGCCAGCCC")
-0.89
>>> meas_value("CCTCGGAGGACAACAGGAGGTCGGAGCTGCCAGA")
0.111
>>> meas_value("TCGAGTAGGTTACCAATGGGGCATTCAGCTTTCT")
-0.0206
>>> meas_value("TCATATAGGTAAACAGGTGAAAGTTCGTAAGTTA")
2.02
>>> meas_value("GCATATAGGTAATACAAGGTGAAAGACCGATTGT")
0.624
>>> meas_value("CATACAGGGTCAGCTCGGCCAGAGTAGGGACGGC")
0.394
>>> meas_value("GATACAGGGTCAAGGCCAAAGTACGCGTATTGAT")
1.25
>>> meas_value("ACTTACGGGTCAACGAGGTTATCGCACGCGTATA")
0.958
>>> meas_value("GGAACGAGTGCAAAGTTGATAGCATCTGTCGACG")
-0.6
>>> meas_value("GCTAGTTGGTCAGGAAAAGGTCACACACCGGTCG")
3.68
>>> meas_value("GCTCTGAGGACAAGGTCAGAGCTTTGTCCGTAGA")
-0.844
>>> meas_value("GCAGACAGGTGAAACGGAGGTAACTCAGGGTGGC")
-0.627
>>> meas_value("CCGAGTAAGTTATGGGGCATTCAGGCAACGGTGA")
-0.0178
>>> meas_value("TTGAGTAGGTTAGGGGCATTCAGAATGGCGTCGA")
1.42
>>> meas_value("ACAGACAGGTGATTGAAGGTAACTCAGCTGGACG")
-0.476
>>> meas_value("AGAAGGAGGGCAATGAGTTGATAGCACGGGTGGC")
0.815
>>> meas_value("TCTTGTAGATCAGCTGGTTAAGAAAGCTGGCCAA")
-0.485
>>> meas_value("CAAACTAGGTCAAGAGGTCCAAGTCCGCTTCCCG")
0.1
>>> meas_value("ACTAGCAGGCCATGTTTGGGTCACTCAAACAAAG")
-0.914
>>> meas_value("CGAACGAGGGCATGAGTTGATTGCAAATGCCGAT")
-0.117
